molecular target: Muscarinic acetylcholine receptor M3 (Mus musculus) (UniProt Q9ERZ3); settings: A9L
Sequence (Q9ERZ3 whole entry): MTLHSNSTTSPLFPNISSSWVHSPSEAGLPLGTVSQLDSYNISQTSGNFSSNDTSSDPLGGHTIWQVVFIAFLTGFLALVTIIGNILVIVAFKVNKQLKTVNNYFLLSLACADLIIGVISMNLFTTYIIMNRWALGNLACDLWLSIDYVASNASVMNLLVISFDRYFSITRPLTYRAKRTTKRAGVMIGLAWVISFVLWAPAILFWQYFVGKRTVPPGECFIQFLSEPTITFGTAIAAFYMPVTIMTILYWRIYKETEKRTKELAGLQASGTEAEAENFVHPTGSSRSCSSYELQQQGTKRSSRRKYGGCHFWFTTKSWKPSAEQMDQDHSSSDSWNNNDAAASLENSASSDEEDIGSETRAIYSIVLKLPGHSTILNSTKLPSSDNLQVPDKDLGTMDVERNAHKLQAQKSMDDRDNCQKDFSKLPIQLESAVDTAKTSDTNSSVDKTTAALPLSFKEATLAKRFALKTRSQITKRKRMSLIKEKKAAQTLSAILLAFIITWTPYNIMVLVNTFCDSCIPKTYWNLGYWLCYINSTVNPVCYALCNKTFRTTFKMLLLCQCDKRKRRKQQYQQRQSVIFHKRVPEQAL
Description: Binding affinity (low) of [3H](R)-QNB binding to Muscarinic acetylcholine receptor M3 expressed in A9 L cell line
VALUE TYPE: KL

MOLECULE	VALUE TYPE	OBSERVED VALUE
Cc1noc(C2CN=CNC2)n1 (centres undefined)	KL	0.57 nM
Cc1noc(C2=CCCN(C)C2)n1	KL	0.46 nM
COC(=O)C1CN=CNC1 (centres undefined)	KL	3.3 nM
C[N+](C)(C)CCOC(N)=O	KL	8.4 nM

----------
List of KL values.
biological target: Muscarinic acetylcholine receptor M2 (Mus musculus); conditions: A9L

MOLECULE	MEASURED ON	UNITS SYMBOL	KL
Cc1noc(C2CN=CNC2)n1 (centres undefined)	Muscarinic acetylcholine receptor M2 (Mus musculus)	nM	0.46
Cc1noc(C2=CCCN(C)C2)n1	Muscarinic acetylcholine receptor M2 (Mus musculus)	nM	0.087
C[N+](C)(C)CCOC(N)=O	Muscarinic acetylcholine receptor M2 (Mus musculus)	nM	12
COC(=O)C1CN=CNC1 (centres undefined)	Muscarinic acetylcholine receptor M2 (Mus musculus)	nM	3.3
